The values you see were collected from paper PMC5540273.

- Test system: AMPK-alpha1
- Construct: gene PRKAA1
- experimentalParameters: concentration: 1 μM, replicates: in singlicate; n = 1;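 further: KINOMEscan kinase panel screen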
Please go through the items and note down their %Inh.
Give bare numbers, in %.

Worked set:
smilesCode: CC(C)c1nc(-c2cccc(NS(=O)(=O)c3c(F)cccc3F)c2F)c(-c2ccnc(Nc3ccc(N4CCOCC4)nc3)n2)s1
unitsText: %
%Inh: 97

smilesCode: CC(=O)N1CCN(c2ccc(Nc3nccc(-c4sc(C(C)C)nc4-c4cccc(NS(=O)(=O)c5cccc(Cl)c5)c4)n3)cn2)CC1
unitsText: %
%Inh: 48

smilesCode: CN1CCN(CCCNc2nccc(-c3c(-c4ccc(F)cc4)nn4cc(C(F)(F)F)ccc34)n2)CC1
unitsText: %
%Inh: 0

smilesCode: Cn1cc(-c2[nH]c3cc(NC(=O)[C@H](N)C4CCCCC4)cc4c3c2C=NNC4=O)cn1
unitsText: %
%Inh: 94.1

smilesCode: CCc1ccc(-c2ccc3c(c2)-c2c(cnn2C)S(=O)(=O)N3C)cc1
unitsText: %
%Inh: 0

Need %Inh for each of these compounds.
1. O=C(Nc1cccc(-c2nn3ccccc3c2-c2ccnc(Nc3cccc(F)c3)n2)c1)c1c(F)ccc(F)c1Cl
2. Cc1ccc(S(=O)(=O)Nc2ccc(Nc3nccc(Nc4cccc5[nH]ncc45)n3)cc2)cc1
3. C[C@@H](Oc1cc(-n2cnc3cc(-c4ccnc(NCCS(C)(=O)=O)c4)ccc32)sc1C(N)=O)c1ccccc1Cl
4. COc1cc2c(cc1OCCN1CCNCC1)ncc1c3ccc(C#N)cc3[nH]c21
5. CN1CCN(Cc2cccc(-c3ccc4c(Nc5ccc(Oc6ccccc6)cc5)ccnc4c3)c2)CC1
6. Cc1ccc(C(=O)N2CC[C@@H](O)C2)cc1-n1c(C)cc(OCc2ccc(F)cc2F)c(Br)c1=O

[20, 0, 0, 15, 8, 2]

Need %Inh for each of these compounds.
1. Nc1n[nH]c2cnc(-c3ccccc3)cc12
2. COc1ccc(-c2coc3ccc(-c4nnc(SCc5ccc(OC)c(C(F)(F)F)c5)o4)cc23)cc1
3. O=C(Nc1cccc(-c2nn3ccccc3c2-c2ccnc(Nc3cccc(C(F)(F)F)c3)n2)c1)c1c(F)cccc1F
4. COc1cccc(-c2ccc3c(NC(=O)C4CC4)n[nH]c3n2)c1
5. FC(F)(F)c1ccc(/C=C/c2cncnc2Nc2ccc3[nH]c(Cc4ccccc4)nc3c2)cc1

1. 0
2. 31
3. 0
4. 0
5. 0

* * *

- Test system: TNIK
- experimentalParameters: concentration: 1 μM, replicates: in singlicate; n = 1
measuredQuantity: %Inh (%)
One number for each entry, in %.

Need %Inh for each of these compounds.
1. Clc1ccc(-c2nn3ncccc3c2-c2ccnc(Nc3ccc4c(c3)OCCO4)n2)cc1
2. CC(C)c1nc(-c2cccc(NS(=O)(=O)c3c(F)cccc3F)c2F)c(-c2ccnc(Nc3ccc(N4CCOCC4)nc3)n2)s1
3. COc1ccc(Nc2nccc(NCCNC(=O)c3cc4ccccc4s3)n2)cc1
4. COc1cccc(C2=C(Nc3ccc(Cl)c(C(=O)O)c3)C(=O)NC2=O)c1
5. O=C(NC1CCN(c2ccnc(Nc3ccc(F)cc3)n2)C1)c1cc2ccccc2s1 (centres unmarked)
6. COc1cc(Nc2nccc(N3CCC(NC(=O)c4cc5ccccc5s4)C3)n2)cc(OC)c1OC (centres unmarked)

31
63
0
0
1
0

Need %Inh for each of these compounds.
1. CN1CCN(Cc2cccc(-c3ccc4c(Nc5ccc(Oc6ccccc6)cc5)ccnc4c3)c2)CC1
2. COc1cc(Nc2nccc(-c3c(-c4cccc(NC(=O)c5c(F)cccc5F)c4)nn4ccccc34)n2)cc(OC)c1OC

1: 98.8; 2: 0

* * *

- System: TLK1
- experimentalParameters: concentration: 1 μM, replicates: in singlicate; n = 1
measuredQuantity: %Inh (%)
Give bare numbers, in %.

compound: COc1cc(Nc2nccc(-c3c(-c4cccc(NC(=O)c5c(F)cccc5F)c4)nn4ccccc34)n2)cc(OC)c1OC
%Inh, %: 6
//
compound: COC(=O)Nc1nc2cc(Oc3ccc(NC(=O)Nc4cc(C(F)(F)F)ccc4F)cn3)ccc2[nH]1.Cl.Cl
%Inh, %: 11
//
compound: CN(C)Cc1ccc(-c2ccc3c(Nc4ccc(Oc5ccccn5)cc4)ccnc3c2)o1
%Inh, %: 0

Need %Inh for each of these compounds.
1. Cl.Cl.NCC(NCc1ccc(-c2ccnc3[nH]ccc23)s1)c1ccccc1 (stereo not drawn)
2. FC(F)(F)c1ccc(/C=C/c2cncnc2Nc2ccc3[nH]c(Cc4ccccc4)nc3c2)cc1
3. Cc1cccc(Nc2nc(N[C@H]3CCNC3)ncc2C(N)=O)c1.Cl
4. CNC(=O)c1ccccc1Nc1nc(Nc2ccc(N3CCOCC3)cc2)ncc1Cl.Cl
5. c1ccc(Oc2ccc(Nc3ccnc4cc(-c5ccc(CNCCN6CCOCC6)o5)ccc34)cc2)nc1
6. CN(C)S(=O)(=O)c1cc(-c2ccc3nccc(-c4cccc(S(N)(=O)=O)c4)c3c2)cnc1N
7. c1ccc(-c2cnc3nccnn23)cc1

1: 0; 2: 0; 3: 20; 4: 52; 5: 0; 6: 0; 7: 0

* * *

Please go through the items and note down their %Inh.
- Tested on: EPHA5
- experimentalParameters: concentration: 1 μM, replicates: in singlicate; n = 1
Numbers only, in %.

Worked set:
compound: Cc1ccc(C(=O)N2CC[C@@H](O)C2)cc1-n1c(C)cc(OCc2ccc(F)cc2F)c(Br)c1=O
%Inh [%]: 0

compound: CCn1c(-c2nonc2N)nc2c(C#CC(C)(C)O)ncc(OCCCCN)c21.O=C(O)C(F)(F)F.O=C(O)C(F)(F)F
%Inh [%]: 0

compound: NCCCC(NC(=O)c1cc(Br)c(-c2ccnc3[nH]ccc23)s1)c1ccccc1.O=C(O)C(F)(F)F.O=C(O)C(F)(F)F (stereo not shown)
%Inh [%]: 5

Need %Inh for each of these compounds.
1. FC(F)(F)c1ccc(/C=C/c2cncnc2Nc2ccc3[nH]c(Cc4ccccc4)nc3c2)cc1
2. CCc1ccc(-c2ccc3c(c2)-c2c(cnn2C)S(=O)(=O)N3C)cc1

0
8

Need %Inh for each of these compounds.
1. c1ccc(-c2cnc3nccnn23)cc1
2. CNC(=O)c1ccccc1Nc1nc(Nc2ccc(N3CCOCC3)cc2)ncc1Cl.Cl

1. 0
2. 0

Need %Inh for each of these compounds.
1. Cc1occc1-c1ncc(OC[C@@H](N)Cc2c[nH]c3ccccc23)cc1-c1ccc2[nH]nc(C)c2c1.O=C(O)C(F)(F)F
2. CCS(=O)(=O)c1ccc(OC)c(Nc2nccc(-c3c(-c4cccc(NC(=O)c5c(F)cccc5F)c4)nn4ncccc34)n2)c1
3. Cc1cccc(Nc2nc(N[C@H]3CCNC3)ncc2C(N)=O)c1.Cl

1: 0; 2: 0; 3: 0

Need %Inh for each of these compounds.
1. Cc1cccc(NC(=O)Nc2ccc(Oc3ncnc4ccn(C)c34)cc2)c1
2. COc1cc(Nc2nccc(N3CCC(NC(=O)c4cc5ccccc5s4)C3)n2)cc(OC)c1OC (stereo not shown)
3. Cl.c1ccc(-c2ccc3c(Nc4ccc5[nH]ncc5c4)ccnc3c2)nc1

1: 9; 2: 0; 3: 0

* * *

- System: SLK
- experimentalParameters: concentration: 1 μM, replicates: in singlicate; n = 1
measuredQuantity: %Inh (%)
Answers are plain numbers, in %.

compound: Nc1ncc(-c2ccc3nccc(-c4ccncc4)c3c2)cc1S(=O)(=O)N1CCOCC1 [GSK1627798]
unitsText: %
%Inh: 36

compound: O=C(Nc1cccc(-c2nn3ccccc3c2-c2ccnc(Nc3cccc(F)c3)n2)c1)c1c(F)ccc(F)c1Cl [GSK357952]
unitsText: %
%Inh: 91.2

compound: Cc1ccc(C)c(NC(=O)NC2CCN(c3ccnc(Nc4ccc(F)cc4)n3)C2)c1 (centres unmarked) [GSK1379720]
unitsText: %
%Inh: 0

compound: Cn1cc(-c2ccc3c(c2)CCN3C(=O)Cc2cccc(F)c2)c2c(N)ncnc21 [GSK2603358]
unitsText: %
%Inh: 55

compound: Cn1cc(-c2ccc3c(c2)CCN3C(=O)Cc2cccc(Cl)c2)c2c(N)ncnc21 [GSK2606590]
unitsText: %
%Inh: 67

Need %Inh for each of these compounds.
1. CN1CCN(Cc2cccc(-c3ccc4c(Nc5ccc(Oc6ccccc6)cc5)ccnc4c3)c2)CC1 [GW578342]
2. O=C(Nc1n[nH]c2cc(-c3ccoc3)ccc12)C1CC1 [SB-738481]
3. CCS(=O)(=O)c1ccc(OC)c(Nc2nccc(-c3c(-c4cccc(NC(=O)c5c(F)cccc5F)c4)nn4ncccc34)n2)c1 [GSK326180]

1: 0; 2: 2; 3: 54

* * *

- System: STK36
- experimentalParameters: concentration: 1 μM, replicates: in singlicate; n = 1
Please go through the items and note down their %Inh.
Numbers only, in %.

compound: COC(=O)Nc1nc2cc(Oc3ccc(NC(=O)Nc4cc(C(F)(F)F)ccc4F)cn3)ccc2[nH]1.Cl.Cl
%Inh [%]: 0
//
compound: c1ccc(-c2cnc3nccnn23)cc1
%Inh [%]: 0
//
compound: Cc1ccc(S(=O)(=O)Nc2ccc(Nc3nccc(Nc4cccc5[nH]ncc45)n3)cc2)cc1
%Inh [%]: 0
//
compound: O=C(Nc1cccc(-c2nn3ccccc3c2-c2ccnc(Nc3cccc(F)c3)n2)c1)c1c(F)ccc(F)c1Cl
%Inh [%]: 99.3
//
compound: Nc1ncc(-c2cccnc2)c2scc(-c3ccc4c(c3)CCN4C(=O)Cc3ccccc3)c12
%Inh [%]: 87
//
compound: COc1cc2c(cc1OCCN1CCNCC1)ncc1c3ccc(C#N)cc3[nH]c21
%Inh [%]: 6
//
compound: Cl.Cl.NCC(C(=O)Nc1cc(Br)c(-c2ccnc3[nH]ccc23)s1)c1ccccc1 (centres unmarked)
%Inh [%]: 0

Next compound, please.
Give %Inh for the following compound: O=C(Nc1n[nH]c2nc(-c3ccc(O)cc3)ccc12)C1CC1 15
